System: Breast, MCF7 | Read-out: GI50
Where a name gives a salt, the structure may show the parent alone.
Readout name: GI50 (nM)

# Compound, Measurement
records = [
    ("NCCCn1c2c(c3cccnc3c1=O)C(=O)c1ccccc1-2 [Compound 60, Dihydrochloride]", 417),
    ("CN(C)CCCn1c2c(c3cccnc3c1=O)C(=O)c1ccccc1-2", 363),
    ("CC[C@@]1(O)C(=O)OCc2c1cc1n(c2=O)Cc2cc3ccccc3nc2-1 [Compound 1, camptothecin, reference compound]", 10),
    ("CN(C)CCCn1c2c(c3cnccc3c1=O)C(=O)c1ccccc1-2", 245),
]

----------
Counter-ions that a name gives are not always drawn.

# Compound, melting point
records = [
    ("NCCCn1c2c(c3cnccc3c1=O)C(=O)c1ccccc1-2 (as salt: hydrochloride) [Compound 58, Dihydrochloride]", "272 to 274 °C"),
    ("O=C1c2ccccc2-c2c1c1cnccc1c(=O)n2C[C@H](O)CO [Compound 49]", "229 to 232 °C"),
    ("O=C1c2ccccc2-c2c1c1cccnc1c(=O)n2CCCN1CCOCC1 [Compound 39]", "177 to 178 °C"),
    ("O=C1c2ccccc2-c2c1c1ncccc1c(=O)n2CCCn1ccnc1 [Compound 40]", "242 to 243 °C"),
    ("O=C1c2ccccc2-c2c1c1ccncc1c(=O)n2C[C@H](O)CO [Compound 50]", "237 to 238 °C"),
    ("O=C1c2ccccc2-c2c1c1cccnc1c(=O)n2CCCn1ccnc1 [Compound 43]", "251 to 252 °C"),
    ("O=C1c2ccccc2-c2c1c1cnccc1c(=O)n2CCCn1ccnc1 [Compound 41]", "274 to 275 °C"),
    ("O=C1c2ccccc2-c2c1c1cccnc1c(=O)n2C[C@H](O)CO [Compound 51]", "247 to 255 °C"),
    ("O=C1c2ccccc2-c2c1c1ncccc1c(=O)n2C[C@H](O)CO [Compound 48]", "245 to 250 °C (dec.)"),
    ("O=C1c2ccccc2-c2c1c1ncccc1c(=O)n2CCCN1CCOCC1 [Compound 36]", "223 to 224 °C"),
    ("NCCCn1c2c(c3ncccc3c1=O)C(=O)c1ccccc1-2 (as salt: hydrochloride) [Compound 57, Dihydrochloride]", "226 to 228 °C"),
]

----------
Each record here notes measured IC50.
# System: recombinant human TDP2 (Homo sapiens)
# Sequence (O95551 whole entry): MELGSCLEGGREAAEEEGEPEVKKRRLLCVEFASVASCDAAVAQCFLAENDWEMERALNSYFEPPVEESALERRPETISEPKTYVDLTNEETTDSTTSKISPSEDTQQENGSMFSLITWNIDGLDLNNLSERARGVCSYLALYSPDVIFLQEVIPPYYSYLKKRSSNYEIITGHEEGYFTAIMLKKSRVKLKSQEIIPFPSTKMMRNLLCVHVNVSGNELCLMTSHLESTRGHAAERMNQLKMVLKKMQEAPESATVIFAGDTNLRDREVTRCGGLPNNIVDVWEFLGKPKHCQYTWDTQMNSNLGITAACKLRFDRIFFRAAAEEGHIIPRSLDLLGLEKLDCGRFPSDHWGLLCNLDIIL
# Test name: Recombinant TDP2 assay
# Measurement context: recombinant human TDP2, gel-based; read-out: TDP2: IC50 values for the inhibition of TDP2
Structures can show the parent of a compound that is named as a salt.
Readout name: IC50

# Molecule, Measurement
data = [
    ("O=C1c2ccccc2-c2c1c1ncccc1c(=O)n2C[C@H](O)CO [Compound 48]", "> 111 µM"),
    ("O=C1c2ccccc2-c2c1c1ncccc1c(=O)n2CCCN1CCOCC1 [Compound 36]", "> 111 µM"),
    ("O=C1c2ccccc2-c2c1c1cccnc1c(=O)n2CCCn1ccnc1 [Compound 43]", "> 111 µM"),
    ("CN(C)CCCn1c2c(c3cnccc3c1=O)C(=O)c1ccccc1-2 [Compound 45]", "37 µM"),
    ("NCCCn1c2c(c3cnccc3c1=O)C(=O)c1ccccc1-2 [Compound 58, Dihydrochloride]", "~111 µM"),
    ("O=C1c2ccccc2-c2c1c1cnccc1c(=O)n2CCCn1ccnc1 [Compound 41]", "> 111 µM"),
    ("O=C1c2ccccc2-c2c1c1ccncc1c(=O)n2CCCN1CCOCC1 [Compound 38]", "> 111 µM"),
    ("O=C1c2ccccc2-c2c1c1cnccc1c(=O)n2C[C@H](O)CO [Compound 49]", "> 111 µM"),
    ("O=C1c2ccccc2-c2c1c1ccncc1c(=O)n2CCCn1ccnc1 [Compound 42]", "> 111 µM"),
    ("O=C1c2ccccc2-c2c1c1cnccc1c(=O)n2CCCN1CCOCC1 [Compound 37]", "> 111 µM"),
    ("O=C1c2ccccc2-c2c1c1cccnc1c(=O)n2C[C@H](O)CO [Compound 51]", "> 111 µM"),
    ("CN(C)CCCn1c2c(c3ncccc3c1=O)C(=O)c1ccccc1-2 [Compound 44]", "> 111 µM"),
    ("O=C1c2ccccc2-c2c1c1cccnc1c(=O)n2CCCN1CCOCC1 [Compound 39]", "> 111 µM"),
    ("O=C1c2ccccc2-c2c1c1ncccc1c(=O)n2CCCn1ccnc1 [Compound 40]", "> 111 µM"),
    ("NCCCn1c2c(c3ccncc3c1=O)C(=O)c1ccccc1-2 [Compound 59, Dihydrochloride]", "~111 µM"),
    ("CN(C)CCCn1c2c(c3cccnc3c1=O)C(=O)c1ccccc1-2 [Compound 47]", "> 111 µM"),
    ("NCCCn1c2c(c3ncccc3c1=O)C(=O)c1ccccc1-2 [Compound 57, Dihydrochloride]", "> 111 µM"),
    ("NCCCn1c2c(c3cccnc3c1=O)C(=O)c1ccccc1-2 [Compound 60, Dihydrochloride]", "> 111 µM"),
]
